- Test system: EPLC-272H
- test method notes: relative viability (nuclei count vs DMSO), 5 days (fraction); higher = more cells survive
- run conditions: first compound 0.04 µM
Quick rule for you: relative viability under 0.3 gets Met, anything else gets Not met.

Record excerpt, results attached:
compound | label
Clc1ccc(Nc2nnc(Cc3ccncc3)c3ccccc23)cc1 [Vatalanib] + Cc1nc(NC(=O)N2CCC[C@H]2C(N)=O)sc1-c1ccnc(C(C)(C)C(F)(F)F)c1 [Alpelisib] (partner 2 µM) | Not met
Clc1ccc(Nc2nnc(Cc3ccncc3)c3ccccc23)cc1 [Vatalanib] + COc1cc2c(Oc3ccc(NC(=O)C4(C(=O)Nc5ccc(F)cc5)CC4)cc3F)ccnc2cc1OCCCN1CCOCC1 [Foretinib] (partner 0.25 µM) | Not met
Clc1ccc(Nc2nnc(Cc3ccncc3)c3ccccc23)cc1 [Vatalanib] + CS(=O)(=O)N1CCN(Cc2cc3nc(-c4cccc5[nH]ncc45)nc(N4CCOCC4)c3s2)CC1 [Pictilisib] (partner 1 µM) | Not met

Continue with the next compound.
Exercise: Hi there! Is relative viability for COc1cc(N2CCC(C(N)=O)CC2)ccc1Nc1nc(N)c(Cl)c(Nc2ccccc2S(=O)(=O)C(C)C)n1 [HG-5-88-01] + Nc1nc2[nH]cc(CCc3ccc(C(=O)N[C@@H](CCC(=O)O)C(=O)O)cc3)c2c(=O)[nH]1 [Pemetrexed] (partner 0.2 µM) below 0.3, do you know?
Key: Not met

###

- Test system: HCC-15
- test method notes: relative viability (nuclei count vs DMSO), 5 days (fraction); higher = more cells survive
- run conditions: first compound 0.1265 µM
Entries and their measured relative viability follow.
Number only, no unit.

molecule | target | relative viability
C[C@@H]1CN(CC(=O)Nc2ccc3c(c2)Cc2cccc(-c4cc(=O)cc(N5CCOCC5)o4)c2S3)C[C@H](C)O1 + COc1cccc2cc(-c3nc([C@H]4CC[C@H](C(=O)O)CC4)n4ncnc(N)c34)[nH]c12 [OSI-027] (partner 0.5 µM) | HCC-15 | 0.606

Exercise: Give its relative viability value. Item: C[C@@H]1CN(CC(=O)Nc2ccc3c(c2)Cc2cccc(-c4cc(=O)cc(N5CCOCC5)o4)c2S3)C[C@H](C)O1 + N=C(N)NC(=N)NCCc1ccccc1 [Phenformin] (partner 250 µM)
Key: 0.437

###

- System: NCI-H1299
- test method notes: relative viability (nuclei count vs DMSO), 5 days (fraction); higher = more cells survive
- run conditions: first compound 0.04 µM
Entries and their measured relative viability follow.
Number only, no unit.

Please review the entries below; each comes with its answer.
compound | test readout | value measured
C[C@@H]1CN(CC(=O)Nc2ccc3c(c2)Cc2cccc(-c4cc(=O)cc(N5CCOCC5)o4)c2S3)C[C@H](C)O1 + Cc1nc(NC(=O)N2CCC[C@H]2C(N)=O)sc1-c1ccnc(C(C)(C)C(F)(F)F)c1 [Alpelisib] (partner 2 µM) | relative viability | 1.02
COc1cc(N2CCC(C(N)=O)CC2)ccc1Nc1nc(N)c(Cl)c(Nc2ccccc2S(=O)(=O)C(C)C)n1 [HG-5-88-01] + O=C(c1cc(Cc2n[nH]c(=O)c3ccccc23)ccc1F)N1CCN(C(=O)C2CC2)CC1 [Olaparib] (partner 8 µM) | relative viability | 0.956
COc1cc(N2CCC(C(N)=O)CC2)ccc1Nc1nc(N)c(Cl)c(Nc2ccccc2S(=O)(=O)C(C)C)n1 [HG-5-88-01] + CS(=O)(=O)CCNCc1ccc(-c2ccc3ncnc(Nc4ccc(OCc5cccc(F)c5)c(Cl)c4)c3c2)o1 [Lapatinib] (partner 2 µM) | relative viability | 0.914

Continue with the next compound.
Exercise: Give its relative viability value. Item: Clc1ccc(Nc2nnc(Cc3ccncc3)c3ccccc23)cc1 [Vatalanib] + CC(C)C[C@H](NC(=O)[C@H](Cc1ccccc1)NC(=O)c1cnccn1)B(O)O [Bortezomib] (partner 0.002 µM)
Key: 1.02
